# run.description: qHTS of pediatric cancer cell lines to identify multiple opportunities for drug repurposing: Primary screen for TC32 cells (AID 1347089); note: nearly all actives have a fitted effect of over 60% in size
# conditions: TC32 Ewing sarcoma viability, CellTiter-Glo luminescence, 48 h; series mostly up to 45.8 µM
Records with an inconclusive call do not appear. Active and inactive are the calls of the source. Calls come from the whole dose curve; as a rule, active = well fitted cell-killing curve with a large enough effect; inconclusive = small, poorly fitted or top-dose-only effect; inactive = flat fitted curve, though single readings scatter.

# compound, outcome
measured = [
    ("OC[C@H]1O[C@@H](Oc2ccc(O)cc2)[C@H](O)[C@@H](O)[C@H]1O", "inactive"),
    ("OC(c1cc(C(F)(F)F)nc2c(C(F)(F)F)cccc12)C1CCCCN1 (centres undefined)", "inactive"),
    ("O[C@@H](COc1cccc2ncccc12)CN1CCN(C2c3ccccc3[C@@H]3[C@H](c4ccccc42)C3(F)F)CC1 (some centres undefined)", "inactive"),
    ("C=CC[N+]1([C@H]2C[C@H]3[C@@H]4CC[C@H]5C[C@H](O)[C@@H](N6CCOCC6)C[C@]5(C)[C@@H]4CC[C@]3(C)[C@H]2OC(C)=O)CCCC1", "inactive"),
    ("O=C(c1ccc(C(=O)N2CCC(N3CCCC3)CC2)c(Nc2ccccc2)c1)N1CCC(N2CCCC2)CC1", "inactive"),
    ("C#CCN(C)CC1=Cc2ccccc2Oc2ccccc21", "inactive"),
    ("CCOC(=O)N1CCN([N+]([O-])=NOc2cc(ON=[N+]([O-])N3CCN(C(=O)OCC)CC3)c([N+](=O)[O-])cc2[N+](=O)[O-])CC1", "inactive"),
    ("CC=C(C(=CC)c1ccc(O)cc1)c1ccc(O)cc1", "inactive"),
    ("COc1nc(C)cnc1NS(=O)(=O)c1cccnc1-c1ccc(-c2nnco2)cc1", "inactive"),
]
